# Tested on: HEK293T cells (HEK293T细胞)
# Type: cell-based
# MEASUREMENT_CONDITIONS: RBD mRNA-LNP, mRNA 1 μg, 24 h, cell supernatant
Entries and their RBD protein concentration values follow.
# unit: ng/mL | format: bare number

CCCCCCCCC(CCCCCC)COC(=O)CCCCCCCN(CCCCCCCC(=O)OCC(CCCCCC)CCCCCCCC)CCN(CCO)CCO (stereo not shown); 6.4

Now for another entry.
Reported RBD protein concentration ( "CCCCCCCC(CCCCCCC)OC(=O)CCCCCCN(CCCCCCC(=O)OC(CCCCCCC)CCCCCCC)CCN(CCO)CCO" ) = 41.6
